For each of the compounds below, state its growth.
- Test system: CAKI-1 renal
- method description: NCI-60 one-dose screen, 48 h (100 = growth as untreated, 0 = no growth, -100 = all killed)
- test settings: 10 µM unless noted
Compounds without any hit were thinned out: in the full panel of roughly 83,000, 20% have a hit. Active and inactive are the calls of the source. The calls were made as follows: active = growth percent below 10; inactive = the rest.

| compound | growth |
| --- | --- |
| COC(=O)[C@@H](C)C[C@H](Cc1ccccc1)NC(=O)c1csc([C@@H](C[C@H](C(C)C)N(C)C(=O)[C@@H](NC(=O)CN(C)C)C2CC2)OC(C)=O)n1 | 63.5% (inactive) |

I would be grateful if you could provide growth for each of the following entries.
1. CCOC(=O)CCC(NC(=O)C(Cc1ccc(N(CCCl)CCCl)cc1)NC=O)C(=O)OCC (configuration not stated)
2. CCN(CC)CCOC(=O)C(OC(C)C)(c1ccccc1)c1ccccc1
3. CCn1c2ccccc2c2cc(C(=O)c3cccc4c3CCCN4)ccc21

OUT:
1. 10.5% (inactive)
2. 87.2% (inactive)
3. 99.3% (inactive)

I would be grateful if you could provide growth for each of the following entries.
1. c1cc2c(c3c1CCNC3)OCO2
2. O=C1CCC2(O)[C@@H]3Cc4ccc(O)c5c4[C@]2(CCN3Cc2ccoc2)C1O5 (some centres not stated)
3. COP(=S)(N1CC1)N1CC1
4. O=C(N/N=C\c1ccc(N(CCCl)CCCl)cc1)c1cccc([N+](=O)[O-])c1

OUT:
1. 91.1% (inactive)
2. 99.3% (inactive)
3. 93.6% (inactive)
4. 89.3% (inactive)

I would be grateful if you could provide growth for each of the following entries.
1. COc1ccc(/C=C/c2cc(OC)c(OC)c(OC)c2)cc1NC(=O)/C=C/c1ccc(F)cc1
2. CC(C)(NC(=O)O[C@@H]1CN2CCC1CC2)c1csc(-c2ccc(F)cc2)n1
3. COc1cc(/C=N/C2=C(C#N)C(c3ccco3)c3c(c4cc(C)ccc4oc3=O)O2)cc(OC)c1OC (configuration not stated)
4. O=C1C2CCC1C(N1CCCC1)CC2 (configuration not stated)
5. C#Cc1ccc2c(c1)C(c1ccccc1F)=NCC(=O)N2C
6. CC12CC(=O)C3(SC#N)C(CCC4=CC(=O)CCC43C)C1CCC2=O (configuration not stated)
7. CC(=O)c1ccc(C(=O)NCC2CCC3(CC2)OOC2(CCCCC2)OO3)cc1
8. CC1=C([Te]c2ccc(O)cc2)C(=O)c2ccccc2C1=O

OUT:
1: 33.9% (inactive); 2: 81.5% (inactive); 3: 85.8% (inactive); 4: 97.7% (inactive); 5: 55.1% (inactive); 6: 93.5% (inactive); 7: -29.9% (active); 8: -93.3% (active)

I would be grateful if you could provide growth for each of the following entries.
1. CC1CCCC(C[N+](C)(C)C)C1=O (configuration not stated)
2. C[C@]12CC[C@H]3[C@@H](CC4SC(N)=NC45C/C(=N/NC(N)=O)CC[C@]35C)[C@@H]1CCC2=O (some centres not stated)
3. CCOC(=S)S[C@H]1C[C@@H]2[C@H](CC[C@]3(C)C(=O)CC[C@@H]23)[C@@]2(C)CCC(=O)C=C12
4. COc1ccc(/C=C\c2cc(OC)c(OC)c(OC)c2)cc1NS(=O)(=O)c1ccc(Cl)cc1
5. O=C1C(=Cc2cn(Cc3ccccc3)c3ccccc23)C(=O)N(Cc2ccccc2)C(=O)N1Cc1ccccc1
6. CC(C)(N)Cc1ccccc1
7. O[C@H](CN1CC1)[C@@H](O)CN1CC1
8. O=C(NCCN1CC1)C(=O)NCCN1CC1

OUT:
1: 103% (inactive); 2: 63% (inactive); 3: 99.6% (inactive); 4: 42.8% (inactive); 5: 94.6% (inactive); 6: 97.6% (inactive); 7: -0.578% (active); 8: 20.9% (inactive)

I would be grateful if you could provide growth for each of the following entries.
1. COc1cccc(C=NC(Cc2cnc[nH]2)C(=O)O)c1O (configuration not stated)
2. CC[C@@H]1[C@@H](C)O[C@@](O)([C@@H](C)[C@H](O)[C@H](C)[C@H]2OC(=O)/C=C/C=C/[C@H](C)[C@@H]([C@@H](C)[C@@H](O)[C@H](C)[C@@]3(O)C[C@@H](O[C@H]4C[C@@H](O)[C@H](O)C(C)O4)[C@H](CC)[C@@H](C)O3)OC(=O)/C=C/C=C/[C@@H]2C)C[C@H]1O[C@@H]1C[C@@H](O)[C@H](O)C(C)O1 (some centres not stated)
3. CC[C@H](C)[C@H](NC(=O)NC(C)(C)C)C(=O)N(C)[C@H](C[C@@H](OC(C)=O)c1nc(C(=O)N[C@@H](Cc2ccccc2)C[C@H](C)C(=O)OC)cs1)C(C)C

OUT:
["86.5% (inactive)", "-98.4% (active)", "22.2% (inactive)"]

I would be grateful if you could provide growth for each of the following entries.
1. Cc1cnc(/C=C/C(=O)O)cc1-c1cc2c(cc1C)C(C)(C)CCC2(C)C
2. O=[N+]([O-])c1cc([N+](=O)[O-])c(Cl)cc1Cl
3. C/C(=C\c1ccn(-c2ccc(N)cc2C(F)(F)F)n1)[C@@H]1C[C@@H]2O[C@]2(C)CCC[C@H](C)[C@H](O)[C@@H](C)C(=O)C(C)(C)[C@@H](O)CC(=O)O1
4. CCC1(C)CC(CCNCc2ccccc2O)(c2ccc(C)cc2)CCO1 (configuration not stated)
5. C=CC1=C[C@@H]2[C@@H]3O[C@]4(CC[C@H](O4)[C@@H](C)C[C@@H](O)C3=O)C[C@H](O)C3=NCC[C@@]32CC1
6. Cc1sc2c(c1C)C(c1ccc(Cl)cc1)=N[C@@H](CC(=O)OC(C)(C)C)c1nnc(C)n1-2

OUT:
79% (inactive)
-81.2% (active)
31.4% (inactive)
106% (inactive)
-11.4% (active)
21.6% (inactive)

I would be grateful if you could provide growth for each of the following entries.
1. CSc1nc(Cl)cc(N2CC2)n1
2. CC1=C(CN)C2=C(C)C3(CC3)[C@@](C)(O)C(=O)C2=C1
3. C/C(=C\c1cc(C(F)(F)F)nn1CCNC(=O)OC(C)(C)C)[C@@H]1C[C@@H]2O[C@]2(C)CCC[C@H](C)[C@H](O)[C@@H](C)C(=O)C(C)(C)[C@@H](O)CC(=O)O1
4. CC(CO)NC1CCCCC1 (configuration not stated)

OUT:
1: 98.3% (inactive); 2: 94.7% (inactive); 3: 47.1% (inactive); 4: 109% (inactive)
